Origin of measurements: PubChem BioAssay

Experiment: inhibitors of the yeast RAM network, pilot screen, dse1pr::URA3 reporter, 5-FOA selection (AID 869);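 further: 0% = DMSO wells with no growth and 100% = 10 µM 1-NA-PP1 with full growth; RAM network block rescues cells from 5-FOA so hits raise OD615 growth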
Conditions: S. cerevisiae dse1pr::URA3 5-FOA growth, OD615, 2 d; at 10 µM; stronger effect = higher value; strain carries analog-sensitive mutant Cbk1 kinase
Test Readout: inhibition (%)
Report the value in % with no unit label.

{"Compound": "CCN=C(NCC)SC1CC(=O)N(c2cccc(OC)c2)C1=O (stereo unspecified)", "Readout Number": 0.04}
{"Compound": "O=C(c1cc(-c2ccc(O)cc2)on1)N1CCc2ccccc2C1", "Readout Number": 0.875}
{"Compound": "O=C(c1c(F)cccc1F)N1CCN(c2cccc(C(F)(F)F)c2)CC1", "Readout Number": 0.955}
{"Compound": "CCOc1ccccc1NC(=O)c1c(NC(=O)CNCc2ccco2)sc2c1CCC2", "Readout Number": 1.43}
{"Compound": "NC(=O)CNC1CC(=O)N(CCc2ccccc2)C1=O (stereo unspecified)", "Readout Number": 0.77}

Problem: Which measured inhibition value corresponds to CCOc1ccc(C2CC(c3ccccc3C)n3ncnc3N2)cc1 (stereo unspecified) ?
Solution: 1.83

Problem: How about COc1ccccc1S(=O)Cc1ccc(C(=O)NC2CCCC2)o1 (stereo unspecified) ?
Solution: 0.395

Problem: How about C=CCC1(O)C(=O)N2C(=C1C(=O)N1CCOCC1)c1ccccc1CC2(C)C (stereo unspecified) ?
Solution: 0.41

Problem: How about CN(C(=O)c1ccc(=O)[nH]c1)C1(C(=O)NC2CCCCC2)CCCCC1 ?
Solution: 0.78

Problem: How about Cn1ccnc1SCC(=O)NC1CCCCC1 ?
Solution: 3.6

Problem: How about CC1CCN(c2nc3c(c(=O)[nH]c(=O)n3C)n2Cc2ccccc2Cl)CC1 ?
Solution: 2.75

Problem: How about CC1=C(C(=O)N2CCOCC2)C(c2cc(C)cs2)NC(=O)N1 (stereo unspecified) ?
Solution: 2.48

Problem: How about CCOc1ccccc1C(=O)NC1CCN(Cc2nnnn2C2CCCC2)CC1 ?
Solution: 0.9

Problem: How about CCCCNC(=O)NS(=O)(=O)c1ccc(NS(=O)(=O)c2ccccc2)cc1 ?
Solution: 2.14

Problem: How about CC(=O)c1cccc(NC(=O)N2CCCC2C(=O)Nc2c(C)cccc2C)c1 (stereo unspecified) ?
Solution: 1.62

Problem: How about CCN(CC)CCOc1ccc(Br)cc1 ?
Solution: 1.24

Problem: How about Cc1ccc2oc(=O)c3cnn(CC(=O)N4CCc5ccccc5C4)c3c2c1 ?
Solution: 1.77

Problem: How about O=C(Cn1c(=O)oc2cc(S(=O)(=O)N3CCOCC3)ccc21)N1CCc2ccccc2C1 ?
Solution: 2.44

Problem: How about COCCOC(=O)C1=C(C)NC2=C(C(=O)CC(C)(C)C2)C1c1ccc(N(C)C)cc1 (stereo unspecified) ?
Solution: -0.03

Problem: How about CC(C)CC(NC(=O)C1CCC(C)CC1)C(=O)Nc1cccnc1 (stereo unspecified) ?
Solution: 0.035

Problem: How about COc1ccc(CC(=O)Nc2cc(C)c3c(=O)oc4ccccc4c3n2)cc1 ?
Solution: 4.06
